- run.description: inhibitors of the yeast RAM network, pilot screen, dse1pr::URA3 reporter, 5-FOA selection (AID 869);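 also: 0% = DMSO wells with no growth and 100% = 10 µM 1-NA-PP1 with full growth; RAM network block rescues cells from 5-FOA so hits raise OD615 growth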
- particulars: S. cerevisiae dse1pr::URA3 5-FOA growth, OD615, 2 d; at 10 µM; active compounds read high; strain carries analog-sensitive mutant Cbk1 kinase
readout.name: inhibition (%)

1. COC(=O)c1cc(NC2c3ccccc3C(=O)N2c2cccnc2)cc(C(=O)OC)c1 (stereo unspecified): 1.27
2. CCOC(=O)c1ccccc1N1C(=O)CSC1=S: 1.11
3. Cc1c(C(=O)Nc2ccc(F)cc2)oc2ccc(S(=O)(=O)N3CCCC3)cc12: 3.88
4. CC1=C(C)C(=O)N(CCC(=O)O)C1=O: 1.52
5. O=C(Oc1ccnc2cc(Cl)ccc12)N1CCOCC1: 1.1
6. CN(C)c1ccc(C2N3CC4(C)CN2CC(C)(C3)C4O)cc1 (stereo unspecified): 2.33
7. CCOC(=O)CSc1nc(C)cc(Oc2ccc(=O)n(C)n2)n1: 1.12
8. Cc1nn(-c2ccccc2)c(C)c1NC(=O)Cc1cccs1: 1.18
9. Cc1occc1-c1nnc(SCCCC(=O)c2ccc(F)cc2)n1C: 1.5
10. C=C(C)Cc1c(C)nc(-c2ccccc2)[nH]c1=O: 1.76
11. COc1ccc(-n2c(Cc3cccn3C)nnc2SCC(=O)N2CCOCC2)cc1: 1.11

###

# inhibition per entry
- run.description: inhibitors of the yeast RAM network, pilot screen, dse1pr::URA3 reporter, 5-FOA selection (AID 869);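 also: 0% = DMSO wells with no growth and 100% = 10 µM 1-NA-PP1 with full growth; RAM network block rescues cells from 5-FOA so hits raise OD615 growth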
- particulars: S. cerevisiae dse1pr::URA3 5-FOA growth, OD615, 2 d; at 10 µM; active compounds read high; strain carries analog-sensitive mutant Cbk1 kinase
readout.name: inhibition (%)

1) COc1ccccc1C(=O)N1CCN(c2cccc(Cl)c2)CC1: 2.75
2) COC(=O)c1ccc(OC(=O)c2nn(C)cc2Cl)c(OC)c1: -0.22
3) CCC(=O)Nc1c(C)cc(C)cc1Cl: 1.44
4) Cc1occc1-c1nnc2sc(-c3ccc(-c4ccc(Cl)cc4)o3)nn12: 3.19
5) O=C(c1ccco1)N1CCN(c2ncccn2)CC1: 2.97
6) CCc1c(C)sc(NC(=O)c2cc(C3CC3)on2)c1C#N: 3.36
7) Cn1c(=O)c2c(nc(Sc3ncccn3)n2Cc2ccc(Cl)cc2)n(C)c1=O: 1.8
8) CCOC(=O)c1c(-c2ccc(C)o2)csc1N: 1.57
9) Cc1ccccc1OCc1nc(-c2ccc(-n3cccc3)cc2)no1: 2
10) Cn1c(=O)c2c(nc(CN3CCN(C(=O)c4ccco4)CC3)n2Cc2ccccc2F)n(C)c1=O: 2.1
11) O=C(C1CCC(CNc2c(N3CCOCC3)c(=O)c2=O)CC1)N1CCN(c2ccccc2)CC1 (stereo not drawn): 2.86
12) Cc1ccc(NC(=O)CSc2nnc(-c3ccncc3)n2N)cc1C: 1.71
13) CN1C(=O)NC(c2ccccc2)C2=C1CN(Cc1ccco1)C2=O (stereo not drawn): 1.47
14) CCOC(=O)N1CCC(NC(=O)c2ccc(CS(=O)(=O)c3ccccc3C)o2)CC1: -0.185
15) Cc1ccc(C(=O)CC2(O)C(=O)N(C)c3ccccc32)o1 (stereo not drawn): 0.645
16) COc1cc(C(=O)NCCc2cn3ccccc3n2)cc(OC)c1OC: 2.1
17) Cn1c(SCCSc2nnc(-c3ccccc3)n2C)nnc1-c1ccccc1: 1.62
18) CC1=C(C(=O)N(C)C)C(c2cccc(Cl)c2)NC(=O)N1 (stereo not drawn): 2.12
19) COc1cccc(-c2cc(N)nn2C(=O)Nc2ccc(Cl)cc2)c1: -0.025
20) Cc1cc(Nc2cc(F)ccc2C)n2nc(C)nc2n1: 1.03
21) CC(=O)CSc1nc2ccc(Nc3nc(N4CCOCC4)nc(N4CCOCC4)n3)cc2s1: 0.87
22) COc1ccccc1N(CC(N)=O)S(=O)(=O)c1ccc(C)cc1: 0.21
23) CSc1nnc(Cn2c(=O)sc3ccccc32)n1-c1ccccc1: 2.03

###

Listing of recorded viability increase by entry.
- run.description: viability gain of MRP-1-high H69AR cells under doxorubicin, pilot screen, MRP-1 activator project, CellTiter-Glo, duplicate (AID 807);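 also: compound pretreatment 18-22 h then 72 h combined with doxorubicin; 0% = doxorubicin alone and 100% = vehicle without doxorubicin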
- particulars: H69AR viability with doxorubicin, CellTiter-Glo luminescence; at 10 µM; active compounds read high
The source made the active and inactive calls.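 Rule for the calls: active = viability increase at or above a cutoff of the median across tested compounds plus 3 SD (cut at about 8.5% in these data, passing the limit was not always enough); inconclusive = some gains above the cutoff, reason not given; inactive = the rest.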
readout.name: viability increase

1) O=C(NCCCNC(=O)c1cccs1)c1cccs1: 0% (inactive)
2) COC(=O)C1=C(C)NC(=O)CC1c1cccc(Cl)c1Cl (stereo not drawn): -1.92% (inactive)
3) O=C(Cn1cc2c(n1)CCCC2)N1CCOCC1: -0.03% (inactive)
4) O=C(CCCCn1c(=O)[nH]c2ccccc2c1=O)N1CCN(c2ncccn2)CC1: -1.54% (inactive)
5) OCCCc1nc2n(n1)C(c1cccs1)C=C(c1ccccc1)N2 (stereo not drawn): -4.73% (inactive)
6) CCc1ccc(N(CC(=O)NC2CCCCC2)S(=O)(=O)c2c(C)noc2C)cc1: -1.23% (inactive)
7) COC(=O)c1ccccc1N(Cc1ccccc1)S(C)(=O)=O: -4.02% (inactive)
8) CCOC(=O)c1c(C)oc2cc(Br)c(OC(=O)N3CCOCC3)cc12: -0.62% (inactive)
9) COc1ccc(CNC(=O)CS(=O)Cc2nc(-c3ccccc3C)oc2C)cc1 (stereo not drawn): -0.34% (inactive)
10) Cc1ccc2c(c1)c1c(n2CC(O)CNC(CO)(CO)CO)CCCC1 (stereo not drawn): -1.14% (inactive)
11) COc1ccc(OC)c(S(=O)(=O)NCCc2cn3ccsc3n2)c1: -2.28% (inactive)
12) CC(C)CC(=O)Nc1ccc2oc(-c3cccnc3)nc2c1: -1.73% (inactive)
13) O=S(=O)(c1ccc(Cl)c(Cl)c1)N1CCc2nc3ccccc3n2CC1: -1.28% (inactive)
14) CCOC(=O)c1ccc(NC(=O)NS(=O)(=O)c2ccc(C)cc2)cc1: -1.46% (inactive)
15) CC(C)N(Cc1nc(-c2ccc(Cl)cc2)no1)C(=O)CCC1CCCC1: -0.03% (inactive)
16) CC(C)NC(=O)c1cc2c(-c3ccc(Cl)cc3)nn(C)c2s1: -6.18% (inactive)
17) C=CCSc1nc2ccccc2c(=O)[nH]1: -0.8% (inactive)
18) Cc1ccc2cc(CCNC(=O)CC(C)C)c(=O)[nH]c2c1: 0.14% (inactive)
19) Cn1c(C(=O)N2CCC(C(=O)N3CCOCC3)CC2)cc2sccc21: 1.85% (inactive)
20) CCOC(=O)C1=C(C)Nc2nc(C)nn2C1c1cc(OC)ccc1OC (stereo not drawn): -1.53% (inactive)
21) NC(=O)C1CCN(c2ncnc3c2c(-c2ccccc2)cn3-c2ccccc2)CC1: -4.62% (inactive)
22) CC1CCc2nn(CC(=O)NCCCN3CCCCC3)cc2C1 (stereo not drawn): -2.34% (inactive)
23) CCCC(=O)Nc1nc2ccc(OCC)cc2s1: 0.26% (inactive)
24) CCOc1cccc(NC(=O)c2ccc(S(=O)(=O)N3CCCC3)cc2)c1: -2.68% (inactive)
25) Cc1cc(NC(=O)CSCCc2ccncc2)no1: -0.06% (inactive)
26) CCOc1ccc(N(C(C)C(=O)Nc2ccc(OC)cc2)S(C)(=O)=O)cc1 (stereo not drawn): 0.78% (inactive)
27) CCOc1ccc(NC(=O)N(CCN(C)C)C(C)c2ccncc2)cc1 (stereo not drawn): -1.59% (inactive)
28) COc1ccc(N2C(=O)C(CC(=O)O)S/C2=C\C(C)=O)cc1 (stereo not drawn): -0.23% (inactive)
29) Cc1ccc(/C=N/c2sc3c(c2C#N)CCC3)s1: -0.97% (inactive)
30) CCc1ccccc1NC(=O)c1cc(C2CC2)on1: -0.65% (inactive)
31) Cc1cccc(C(=O)Nc2cc(=O)n(C)c(=O)n2C)c1: -0.85% (inactive)
32) COc1ccc(-n2c(Cc3cccn3C)nnc2SCC(=O)N2CCOCC2)cc1: -1.11% (inactive)
33) CCOC(=O)c1cc(NC(=O)NCc2ccco2)c(C)nc1C: -3.46% (inactive)
34) CC(=O)Oc1c2occc2cc2ccc(=O)oc12: -2.14% (inactive)
35) O=C(NC1CCN(Cc2ccccc2)CC1)c1ccccc1F: -1.39% (inactive)
36) Cc1cc(C(F)(F)F)nc(NCc2ccc(F)cc2)n1: -1.57% (inactive)
37) c1ccc(CNc2nc3ccccc3[nH]2)cc1: -5.29% (inactive)
38) Cc1ccccc1-c1nc(CS(=O)CC(=O)NCc2ccccc2)c(C)o1 (stereo not drawn): 1.37% (inactive)
39) Fc1ccccc1COc1cccc(/C=N/n2cnnc2)c1: 0.12% (inactive)
40) COc1ccc(-c2noc(Cc3cccs3)n2)cc1: -2.47% (inactive)
41) CCOC(=O)c1ccc(NC2c3ccccc3C(=O)N2c2cccnc2)cc1 (stereo not drawn): -3.72% (inactive)
42) Cc1ccc2oc(=O)c3cnn(CC(=O)NC4CCC(C)CC4)c3c2c1 (stereo not drawn): 0.16% (inactive)
43) Cc1sc2nc(SCC(=O)N3CCCC3)[nH]c(=O)c2c1C: -1.34% (inactive)
44) O=C(CN1CCN(Cc2ccccc2Cl)C1=O)NCC1CCCO1 (stereo not drawn): -2.68% (inactive)
45) O=C(Nc1ccccc1)C1CC(=O)N(C2CCCCC2)C1 (stereo not drawn): 1.42% (inactive)
46) CCCCCn1c(=O)[nH]c2cc(C(=O)NCCCN3CCC(C)CC3)ccc2c1=O: -6.38% (inactive)
47) Cc1ccc(C(=O)NCc2ccc(Cl)c(Cl)c2)o1: 0.03% (inactive)
48) COc1ccc(-c2c(C)oc3cc(O)cc(O)c3c2=O)cc1OC: -1.14% (inactive)
